Values were extracted from PubChem BioAssay (EPA / NIEHS).

# SYSTEM UNDER TEST: Hypoxia-inducible factor 1-alpha (Homo sapiens)
# EXPERIMENT NOTES: ATG_HIF1a_CIS: Attagene CIS-FACTORIAL HepG2 Assay for human Hypoxia Inducible Factor 1 (HIF1A) (AID 2282951)
# TEST SETTINGS: HepG2 Attagene cis-factorial HIF1a reporter transcription; actives raise or lower the signal
Active and inactive are the calls of the source. Rule for the calls: active = hit-call score of the fitted dose curve at least 0.9, where 1 is the maximum; inactive = score below 0.9.
Please reply with one of these outcomes: active, inactive

As a guide, the following entries are already answered.
>>> df
                                   molecule  group_label
0                             CCCCNc1ccccc1     inactive
1                  OCC(F)(F)C(F)(F)C(F)(F)F     inactive
2   FC(F)(F)C(F)(F)C(F)(F)C(F)(F)C(F)(F)CCI     inactive
3  CCCCCCC(C)OC(=O)CCCCC(=O)OC(C)CCCCCC (configuration not stated)     inactive
4  O=C(O)C(F)(OC(F)(F)C(F)(OC(F)(F)C(F)(OC(F)(F)C(F)(F)C(F)(F)F)C(F)(F)F)C(F)(F)F)C(F)(F)F (configuration not stated)     inactive

Pending molecule:
query: Can you look up the reported call for "O=S(=O)(OCCOC(F)(F)F)C(F)(F)F" for me?
result: inactive

* * *

# EXPERIMENT NOTES: ATG_PPRE_CIS: Attagene CIS-FACTORIAL HepG2 Assay for human Peroxisome Proliferator-activated Response Element (PPRE) (AID 2282958)
# TEST SETTINGS: HepG2 PPRE cis-element reporter, Attagene transcription factor profiling; actives raise or lower the signal
Activity calls are given as the source filed them. Rule for the calls: active = hit-call score of the fitted dose curve at least 0.9, where 1 is the maximum; inactive = score below 0.9.
I would appreciate it if you answered using one of these outcomes: Y = active, N = inactive

Some solved cases for reference:
>>> df
                           structure_string  group_label
0              c1ccc(-c2ccccc2-c2ccccc2)cc1            N
1                             CCCCNc1ccccc1            N
2          CC(=O)Nc1ccc(N=Nc2cc(C)ccc2O)cc1            Y
3  C=CC(F)(F)C(F)(F)C(F)(F)C(F)(F)C(F)(F)C(F)(F)C(F)(F)C(F)(F)C=C            N
4  FC(F)(F)C(F)(F)C(F)(F)C(F)(F)C(F)(F)C(F)(F)C(F)(F)C(F)(F)CCS            N
5              O=C(O)C(F)(F)C(F)(F)C(F)(F)F            N
6         FC(F)(F)C(F)(F)CNCC(F)(F)C(F)(F)F            N
7       NC(=O)C(F)(F)C(F)(F)C(F)(F)C(F)(F)F            N

query: Hi, sorry to bother you, what did the test record for "OCCCC(F)(F)C(F)(F)C(F)(F)C(F)(F)C(F)(F)C(F)(F)C(F)(F)F" ?
result: N

query: In this assay, the call recorded for "O=C(Cl)C(F)(F)C(F)(F)C(F)(F)C(F)(F)C(F)(F)C(F)(F)C(F)(F)C(F)(F)F" was what?
result: Y

query: Per the assay record, what outcome was assigned to "O=C(O)C=C(C(F)(F)F)C(F)(F)F" ?
result: N

* * *

# EXPERIMENT NOTES: ATG_SREBP_CIS: Attagene CIS-FACTORIAL HepG2 Assay for human Sterol Regulatory Element Binding (SREBP) (AID 2282962)
# TEST SETTINGS: HepG2 Attagene cis-factorial SREBP reporter, mRNA; actives raise or lower the signal
Activity calls are given as the source filed them. The calls were made as follows: active = hit-call score of the fitted dose curve at least 0.9, where 1 is the maximum; inactive = score below 0.9.
Pick one: class 1 for active, class 0 for inactive

In [3]: df
Out[3]:
                                   compound  group_label
0  FC(F)(F)C(F)(F)C(F)(F)N(C(F)(F)C(F)(F)C(F)(F)F)C(F)(F)C(F)(F)C(F)(F)F      class 0
1  C=CC(=O)OCC(F)(F)C(F)(F)C(F)(F)C(F)(F)COC(=O)C=C      class 1

query: # lookup: test call for CC(C)=CCCC(C)CCOC(=O)C(C)C (stereo unspecified)
result: class 0

query: What call does the record list for FC(F)(F)C(F)(F)C(F)(F)C(F)(F)C(F)(F)C(F)(F)CC1CO1 (stereo unspecified) ?
result: class 0

query: Recorded test outcome, item "NC(=O)C(F)(F)C(F)(F)C(F)(F)C(F)(F)F"
result: class 0

query: Assay result, entry "O=C(Cl)C(F)(F)C(F)(F)C(F)(F)C(F)(F)C(F)(F)C(F)(F)C(F)(F)C(F)(F)F" — outcome?
result: class 0

* * *

# Read-out: Urokinase-type plasminogen activator receptor (uPAR), PLAUR (gene 5329)
# EXPERIMENT NOTES: BSK_BE3C_uPAR: BioMAP Diversity Plus: BE3C Assay for Urokinase-type plasminogen activator receptor (uPAR) Biomarker Activity (AID 2283039)
# TEST SETTINGS: primary human bronchial epithelial cells; actives raise or lower the signal
Activity calls are given as the source filed them. The calls were made as follows: active = hit-call score of the fitted dose curve at least 0.9, where 1 is the maximum; inactive = score below 0.9.
Bench note: report the call from y (active), n (inactive)

Reference set (2 entries):
>>> df
                                   compound  group_label
0  C=CC(F)(F)C(F)(F)C(F)(F)C(F)(F)C(F)(F)C(F)(F)C(F)(F)C(F)(F)C=C            n
1  CCCCCCC(C)OC(=O)CCCCC(=O)OC(C)CCCCCC (stereo not given)            n

query: Test call, this compound: "C=CC(F)(F)C(F)(F)C(F)(F)C(F)(F)C(F)(F)C(F)(F)C(F)(F)C(F)(F)F"
result: n

query: I would be grateful if you could indicate the recorded call for "CCCCCCCCCCCCCCCC[N+](C)(C)Cc1ccccc1" .
result: y

query: Per the records of this test, what outcome belongs to "O=C(O)C(F)(F)C(F)(F)C(F)(F)C(F)(F)F" ?
result: n

query: Hi, do you know how "COC(=O)CCC(F)(F)C(F)(F)C(F)(F)C(F)(F)F" came out in this test?
result: n

query: Write down the call the test reported for this compound. Item: "O=C(O)C(F)(F)C(F)(F)C(F)(F)C(F)(F)C(F)(F)C(F)(F)C(F)(F)C(F)(F)C(F)(F)C(F)(F)C(F)(F)C(F)(F)F"
result: n

query: Per the records of this test, what outcome belongs to "FC(F)(F)C(F)(F)C(F)(F)C(F)(F)C(F)(F)C(F)(F)C(F)(F)I" ?
result: n

query: Recorded test call requested for "NC(=O)C(F)(F)C(F)(F)C(F)(F)C(F)(F)F"
result: n

query: Please state the recorded outcome for this compound: "OCC(F)(F)C(F)(F)C(F)(F)C(F)(F)C(F)(F)C(F)(F)F"
result: n

* * *

# EXPERIMENT NOTES: ATG_PBREM_CIS: Attagene CIS-FACTORIAL HepG2 Assay for human Phenobarbital-responsive Enhancer Module (PBREM) (AID 2282955)
# TEST SETTINGS: HepG2 PBREM cis-reporter, Attagene multiplexed transcription; actives raise or lower the signal
Active and inactive are the calls of the source. Rule for the calls: active = hit-call score of the fitted dose curve at least 0.9, where 1 is the maximum; inactive = score below 0.9.
// one of active, inactive, no free text

Observe how each entry below is paired with its result.
                                   compound  group_label
0  FC1CC(F)(F)C(F)(F)C1(F)F (centres undefined)     inactive
1  FC(F)(F)C(F)(F)C(F)(F)C(F)(F)C(F)(F)C(F)(F)CC1CO1 (centres undefined)     inactive
2  CC(C)(C)c1ccc(OC2CCCCC2O)cc1 (centres undefined)       active
3    COC(=O)CCC(F)(F)C(F)(F)C(F)(F)C(F)(F)F     inactive
4        Nc1ccc(Oc2cccc(Oc3ccc(N)cc3)c2)cc1     inactive
5              CCc1c(Br)c(Br)c(Br)c(Br)c1Br       active
6                           Cc1cc(C)cc(O)c1     inactive
7                            CC(C)c1ccccc1N     inactive
8  CC(Cc1ccc(O)c(O)c1)C(C)Cc1ccc(O)c(O)c1 (centres undefined)       active
9                     CCCCCCOC(=O)c1ccccc1O     inactive

query: Recorded test call requested for "OCC(F)(F)C(F)(F)C(F)(F)C(F)(F)C(F)(F)C(F)(F)F"
result: active

query: # lookup: test call for "C=CC(=O)OCC(F)(F)C(F)(F)C(F)(F)C(F)(F)C(F)(F)C(F)(F)C(F)(F)F"
result: inactive

query: Please state the recorded outcome for this compound: "CCCCOCCOCCOC(=O)CCCCC(=O)OCCOCCOCCCC"
result: inactive

query: What outcome does the record of this test show for "FC(F)(F)C(F)(F)C(F)(F)C(F)(F)C(F)(F)C(F)(F)C(F)(F)C(F)(F)CCS" ?
result: inactive
